- target: Serine/threonine-protein kinase pim-1 (Homo sapiens, UniProt P11309)
- test details: Inhibition of human recombinant PIM-1 expressed in bacteria assessed as enzyme residual activity using histone H1 as substrate at 10 uM incubated for 30 mins in presence of ATP by ADP-Glo kinase assay
- Sequence (P11309 whole entry, looked up): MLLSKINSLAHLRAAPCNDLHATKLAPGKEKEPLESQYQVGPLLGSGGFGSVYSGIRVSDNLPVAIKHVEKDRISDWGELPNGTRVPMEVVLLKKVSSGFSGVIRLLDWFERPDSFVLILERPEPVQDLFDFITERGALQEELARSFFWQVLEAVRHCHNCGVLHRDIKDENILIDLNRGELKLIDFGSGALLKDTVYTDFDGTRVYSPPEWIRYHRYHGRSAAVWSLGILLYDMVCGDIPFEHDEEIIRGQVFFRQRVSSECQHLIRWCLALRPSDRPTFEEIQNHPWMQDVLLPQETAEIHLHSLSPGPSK
In plain terms, low Activity, meaning strictly below 60%, gives fulfilled, and everything else gives not fulfilled.

smiles entry	label value
CC(=O)c1c[nH]c2cc3cnccc3cc12	fulfilled
CNCc1c[nH]c2cc3cnccc3cc12	not fulfilled

**Query** In the record for `c1cc2cc3cc[nH]c3cc2cn1` , is Activity less than 60%?
**Result** fulfilled

**Query** Similarly, `Brc1c[nH]c2cc3cnccc3cc12` ?
**Result** fulfilled

**Query** Query `COc1ncc2cc3cnccc3c([N+](=O)[O-])c2n1` next
**Result** fulfilled

**Query** Quick one: `Cn1ccc2cc3ccncc3cc21`
**Result** fulfilled

**Query** Item: `Nc1cc2cc3ccncc3cc2[nH]1`
**Result** not fulfilled

---

- target: Dual specificity protein kinase CLK1 (Mus musculus) (UniProt P22518)
- Sequence (P22518 whole entry, looked up): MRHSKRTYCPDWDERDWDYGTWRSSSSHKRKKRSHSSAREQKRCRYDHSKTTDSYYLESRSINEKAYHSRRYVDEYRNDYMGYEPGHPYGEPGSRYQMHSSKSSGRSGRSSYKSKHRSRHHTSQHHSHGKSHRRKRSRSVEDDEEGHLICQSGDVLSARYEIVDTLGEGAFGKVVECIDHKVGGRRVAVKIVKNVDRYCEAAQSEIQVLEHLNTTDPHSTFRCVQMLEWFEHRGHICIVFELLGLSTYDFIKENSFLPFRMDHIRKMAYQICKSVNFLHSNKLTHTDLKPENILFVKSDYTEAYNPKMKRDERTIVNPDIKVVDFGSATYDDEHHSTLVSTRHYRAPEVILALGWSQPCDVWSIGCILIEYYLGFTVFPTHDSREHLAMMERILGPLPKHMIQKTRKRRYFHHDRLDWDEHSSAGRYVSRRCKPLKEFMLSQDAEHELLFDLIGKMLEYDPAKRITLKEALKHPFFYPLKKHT
- test details: Inhibition of recombinant mouse CLK1 expressed in bacteria assessed as enzyme residual activity using GRSRSRSRSRSR as substrate at 1 uM incubated for 30 mins in presence of ATP by ADP-Glo kinase assay
Activity class ranges: small value (below 50%), mid value (50% to below 90%), large value (90% or more)

Some solved cases for reference:
smiles entry	target	label value
NCc1c[nH]c2cc3cnccc3cc12	Dual specificity protein kinase CLK1 (Mus musculus) (UniProt P22518)	large value
Brc1c[nH]c2cc3cnccc3cc12	Dual specificity protein kinase CLK1 (Mus musculus) (UniProt P22518)	mid value
Nc1cc2cc3ccncc3cc2[nH]1	Dual specificity protein kinase CLK1 (Mus musculus) (UniProt P22518)	mid value
CCNCc1c[nH]c2cc3cnccc3cc12	Dual specificity protein kinase CLK1 (Mus musculus) (UniProt P22518)	large value
c1cc2cc3c(-c4cncnc4)c[nH]c3cc2cn1	Dual specificity protein kinase CLK1 (Mus musculus) (UniProt P22518)	mid value
c1cc2cc3cc[nH]c3cc2cn1	Dual specificity protein kinase CLK1 (Mus musculus) (UniProt P22518)	mid value

**Query** Category of `Clc1c[nH]c2cc3cnccc3cc12` :
**Result** mid value

**Query** Entry `N#Cc1c[nH]c2cc3cnccc3cc12` please
**Result** small value

**Query** Now try `CCn1ncc2cc3cnccc3c(N)c21` .
**Result** small value

**Query** What do you get for `Ic1c[nH]c2cc3cnccc3cc12` ?
**Result** mid value

**Query** What would you report for `c1cc(-c2c[nH]c3cc4cnccc4cc23)ccn1` ?
**Result** small value

**Query** Request: `O=Cc1c[nH]c2cc3cnccc3cc12`
**Result** mid value

---

- target: UniProtKB P22518
- test details: Inhibition of recombinant mouse CLK1 expressed in bacteria using GRSRSRSRSRSR as substrate incubated for 30 mins in presence of ATP by ADP-Glo kinase assay
Below: a set of entries, each annotated with reported IC50.
Response body: numeric value in µM, unit text excluded.

smiles entry	IC50 [µM]
c1cc(-c2c[nH]c3cc4cnccc4cc23)ccn1	0.693
ON=Cc1c[nH]c2cc3cnccc3cc12	0.139
Nc1nccc(-c2c[nH]c3cc4cnccc4cc23)n1	0.205
O=Cc1c[nH]c2cc3cnccc3cc12	0.182

**Query** Would you mind telling me what IC50 value was observed for `N#Cc1c[nH]c2cc3cnccc3cc12` ?
**Result** 0.36

**Query** Next compound: `CC(=O)c1c[nH]c2cc3cnccc3cc12`
**Result** 0.265

---

- target: Serine/threonine-protein kinase pim-1 (Homo sapiens)
- test details: Inhibition of human recombinant PIM-1 expressed in bacteria assessed as enzyme residual activity using histone H1 as substrate at 1 uM incubated for 30 mins in presence of ATP by ADP-Glo kinase assay
Classify by measured Activity: criterion met if it is equal to or exceeds 90%, criterion not met if it is smaller.

**Query** Is reported Activity greater than or equal to 90% here: `CC(=O)c1c[nH]c2cc3cnccc3cc12`
**Result** criterion not met

---

Each entry below lists one item and its recorded Activity value.
- target: Glycogen synthase kinase-3 beta (Homo sapiens) (UniProt P49841)
- Sequence (P49841 whole entry, looked up): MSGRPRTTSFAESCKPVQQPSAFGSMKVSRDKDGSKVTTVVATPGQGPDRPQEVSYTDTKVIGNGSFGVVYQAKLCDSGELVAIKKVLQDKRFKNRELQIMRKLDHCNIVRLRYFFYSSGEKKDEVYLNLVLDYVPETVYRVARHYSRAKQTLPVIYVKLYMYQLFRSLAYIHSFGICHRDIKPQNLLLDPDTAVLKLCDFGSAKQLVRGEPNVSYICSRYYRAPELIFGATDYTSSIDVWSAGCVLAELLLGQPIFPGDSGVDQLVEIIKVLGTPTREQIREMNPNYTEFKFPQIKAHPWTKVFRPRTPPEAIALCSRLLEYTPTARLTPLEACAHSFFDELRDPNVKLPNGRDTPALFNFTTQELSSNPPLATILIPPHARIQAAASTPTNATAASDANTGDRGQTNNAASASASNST
- test details: Inhibition of human recombinant GSK-3 beta expressed in baculovirus-infected Sf9 cells assessed as enzyme residual activity using YRRAAVPPSPSLSRHSSPHQSpEDEEE as substrate at 10 uM incubated for 30 mins in presence of ATP by ADP-Glo kinase assay
Report the figure in % without appending any unit label.

smiles entry	Activity / %
CC(=O)c1c[nH]c2cc3cnccc3cc12	27

Now for the compound whose Activity we want.
**Query** What Activity appears in the records for this compound with Glycogen synthase kinase-3 beta (Homo sapiens) (UniProt P49841)? `Clc1c[nH]c2cc3cnccc3cc12`
**Result** 82

---

- target: Serine/threonine-protein kinase pim-1 (Homo sapiens)
- test details: Inhibition of human recombinant PIM-1 expressed in bacteria assessed as enzyme residual activity using histone H1 as substrate at 10 uM incubated for 30 mins in presence of ATP by ADP-Glo kinase assay
Parameter Activity: see the listing below.
Dear colleague, please return just the value in %, with no unit written.

smiles entry	Activity, %
c1ccc(-c2c[nH]c3cc4cnccc4cc23)cc1	18

**Query** Report Activity for `Nc1nccc(-c2c[nH]c3cc4cnccc4cc23)n1` tested on Serine/threonine-protein kinase pim-1 (Homo sapiens).
**Result** 4

**Query** Can you handle `Cn1cc(I)c2cc3ccncc3cc21` next?
**Result** 26

**Query** Would you mind doing `CCN(CC)Cc1c[nH]c2cc3cnccc3cc12` as well?
**Result** 47

**Query** Repeat for the following molecule: `ON=Cc1c[nH]c2cc3cnccc3cc12`
**Result** 11

**Query** Would you mind doing `CN(C)Cc1c[nH]c2cc3cnccc3cc12` as well?
**Result** 67

---

Examples of compounds with documented pIC50 follow.
- target: Serine/threonine-protein kinase pim-1 (Homo sapiens)
- test details: Inhibition of human recombinant PIM-1 expressed in bacteria using histone H1 as substrate incubated for 30 mins in presence of ATP by ADP-Glo kinase assay
- Sequence (P11309 whole entry): as the sequence (P11309 whole entry, looked up) above
Please report pIC50 as the negative decimal logarithm of the molar concentration, giving only the number.

smiles entry	pIC50
c1cc(-c2c[nH]c3cc4cnccc4cc23)ccn1	6.32
Brc1c[nH]c2cc3cnccc3cc12	6.09
Nc1nccc(-c2c[nH]c3cc4cnccc4cc23)n1	6.65

Turning to the following compound.
**Query** Request body: readout pIC50, system Serine/threonine-protein kinase pim-1 (Homo sapiens), query `Ic1c[nH]c2cc3cnccc3cc12` . Return the value.
**Result** 6.17

---

List of EC50 values.
- System: HCT-116
- test details: cells
- assay context: Homo sapiens, HCT-116, 48 h
- Description: Antiproliferative activity against human HCT-116 cells assessed as reduction in cell viability incubated for 48 hrs by MTS assay
Provide the reading as a plain figure in µM.

smiles entry	EC50 / µM
c1cc(-c2c[nH]c3cc4cnccc4cc23)ccn1	7.3

Now for another entry.
**Query** Lab request: please report EC50 under test system HCT-116 for `CCn1ncc2cc3cnccc3c(N)c21`
**Result** 1.2

---

- target: CDK9/cyclin T1 (Homo sapiens) (UniProt O60563+P50750)
- test details: Inhibition of human recombinant CDK9/cyclin T expressed in baculovirus-infected Sf9 cells assessed as enzyme residual activity using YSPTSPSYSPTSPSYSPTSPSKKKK as substrate at 10 uM incubated for 30 mins in presence of ATP by ADP-Glo kinase assay
Reported Activity values are given for each entry in this list.
Give the value in % but do not write % after it.

Take a look at these entries with their results.
smiles entry	Activity [%]
CCN(CC)Cc1c[nH]c2cc3cnccc3cc12	51
Nc1nccc(-c2c[nH]c3cc4cnccc4cc23)n1	16
O=Cc1c[nH]c2cc3cnccc3cc12	7
OCc1c[nH]c2cc3cnccc3cc12	55
COc1ncc2cc3cnccc3c([N+](=O)[O-])c2n1	43
c1ccc(-c2c[nH]c3cc4cnccc4cc23)cc1	63
Clc1c[nH]c2cc3cnccc3cc12	25
CCNCc1c[nH]c2cc3cnccc3cc12	37

**Query** // fetch CDK9/cyclin T1 (Homo sapiens) (UniProt O60563+P50750) Activity for `CN(C)Cc1c[nH]c2cc3cnccc3cc12`
**Result** 18

---

- target: Dual specificity tyrosine-phosphorylation-regulated kinase 1A (Rattus norvegicus) (UniProt Q63470)
- test details: Inhibition of recombinant rat DYRK1A kinase domain (1 to 499 residues) expressed in bacteria assessed as enzyme residual activity using KKISGRLSPIMTEQ as substrate at 10 uM incubated for 30 mins in presence of ATP by ADP-Glo kinase assay
Outcome: class 1 for Activity of at least 30%; class 0 for anything lower.

Look over these answered cases.
smiles entry	label value
CCNCc1c[nH]c2cc3cnccc3cc12	class 1
Cn1ccc2cc3ccncc3cc21	class 0
Nc1cc2cc3ccncc3cc2[nH]1	class 1
Clc1c[nH]c2cc3cnccc3cc12	class 0
CN(C)Cc1c[nH]c2cc3cnccc3cc12	class 1

**Query** Does the reported Activity for `N#Cc1c[nH]c2cc3cnccc3cc12` fall at or above the 30% mark?
**Result** class 0

**Query** `Ic1c[nH]c2cc3cnccc3cc12` ?
**Result** class 0

**Query** `CNCc1c[nH]c2cc3cnccc3cc12` , same question.
**Result** class 1

**Query** What about `Cn1cc(I)c2cc3ccncc3cc21` ?
**Result** class 0
